The origin of these recorded values is patent US6566508B2.

Experiment: Fluorescence excitation and emission spectra
Conditions: anion of hydrolysis product
Listing of entries alongside the reported λex (nm).
Provide only the numeric value, understood in nm.

Here is how some compounds turned out for λex (nm).
| compound | recorded-measurement |
| --- | --- |
| O=c1oc2cc(O)ccc2cc1-c1nc2ccccc2o1 [3-(2-benzoxazolyl) umbelliferyl anion] | 425 |
| O=c1oc2cc(O)ccc2cc1-c1nc2ccccc2s1 [3-(2-benzothiazolyl) umbelliferyl anion] | 447 |
| O=c1oc2cc(O)ccc2cc1-c1cccs1 [3-(2-thienyl) umbelliferyl anion, 3-(2-thienyl) umbelliferone] | 410 |

Indicate its recorded λex (nm); the compound in question is O=c1oc2cc(O)ccc2cc1-c1nc2ccccc2[nH]1 [3-(2-benzoimidazolyl) umbelliferyl anion]
420
